# Measurement target: Bcl-2-related protein A1 (Mus musculus);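 further: confirmatory dose–response counterscreen on Bfl-1, used to check hits from a UBC13 polyubiquitin inhibitor campaign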
# Sequence (Q07440 whole entry): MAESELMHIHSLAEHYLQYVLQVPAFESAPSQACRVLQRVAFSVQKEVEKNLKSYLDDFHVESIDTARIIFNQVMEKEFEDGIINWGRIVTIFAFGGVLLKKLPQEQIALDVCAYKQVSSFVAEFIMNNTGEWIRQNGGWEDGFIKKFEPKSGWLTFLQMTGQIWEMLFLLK
# Type: functional
Active and inactive are the calls of the source.
In this exercise, the only acceptable responses are TRUE (active), FALSE (inactive)

// below: answered compounds
COc1cc2nc(N3CCNCC3)nc(N)c2cc1OC: TRUE
COc1ccccc1NC(=O)CN1CCC(n2c(C)nc3cc(F)ccc32)CC1: FALSE
O=C(c1cccc(S(=O)(=O)N2CCCC2)c1)N1CCCC(C(F)(F)F)C1 (centres undefined): FALSE

Given O=C(NCC1CCN(Cc2ccc(Cl)cc2)CC1)C1CCCN(c2ncnc3c2nc2n3CCCCC2)C1 (centres undefined) , state the outcome it received in this test. FALSE
